# TEST_TARGET: human Nav1.5 channels stably expressed in HEK 293 cells (Homo sapiens, UniProt Q14524)
# Construct: expressed in transfected cells; host or cells: HEK 293
# Sequence (Q14524 whole entry): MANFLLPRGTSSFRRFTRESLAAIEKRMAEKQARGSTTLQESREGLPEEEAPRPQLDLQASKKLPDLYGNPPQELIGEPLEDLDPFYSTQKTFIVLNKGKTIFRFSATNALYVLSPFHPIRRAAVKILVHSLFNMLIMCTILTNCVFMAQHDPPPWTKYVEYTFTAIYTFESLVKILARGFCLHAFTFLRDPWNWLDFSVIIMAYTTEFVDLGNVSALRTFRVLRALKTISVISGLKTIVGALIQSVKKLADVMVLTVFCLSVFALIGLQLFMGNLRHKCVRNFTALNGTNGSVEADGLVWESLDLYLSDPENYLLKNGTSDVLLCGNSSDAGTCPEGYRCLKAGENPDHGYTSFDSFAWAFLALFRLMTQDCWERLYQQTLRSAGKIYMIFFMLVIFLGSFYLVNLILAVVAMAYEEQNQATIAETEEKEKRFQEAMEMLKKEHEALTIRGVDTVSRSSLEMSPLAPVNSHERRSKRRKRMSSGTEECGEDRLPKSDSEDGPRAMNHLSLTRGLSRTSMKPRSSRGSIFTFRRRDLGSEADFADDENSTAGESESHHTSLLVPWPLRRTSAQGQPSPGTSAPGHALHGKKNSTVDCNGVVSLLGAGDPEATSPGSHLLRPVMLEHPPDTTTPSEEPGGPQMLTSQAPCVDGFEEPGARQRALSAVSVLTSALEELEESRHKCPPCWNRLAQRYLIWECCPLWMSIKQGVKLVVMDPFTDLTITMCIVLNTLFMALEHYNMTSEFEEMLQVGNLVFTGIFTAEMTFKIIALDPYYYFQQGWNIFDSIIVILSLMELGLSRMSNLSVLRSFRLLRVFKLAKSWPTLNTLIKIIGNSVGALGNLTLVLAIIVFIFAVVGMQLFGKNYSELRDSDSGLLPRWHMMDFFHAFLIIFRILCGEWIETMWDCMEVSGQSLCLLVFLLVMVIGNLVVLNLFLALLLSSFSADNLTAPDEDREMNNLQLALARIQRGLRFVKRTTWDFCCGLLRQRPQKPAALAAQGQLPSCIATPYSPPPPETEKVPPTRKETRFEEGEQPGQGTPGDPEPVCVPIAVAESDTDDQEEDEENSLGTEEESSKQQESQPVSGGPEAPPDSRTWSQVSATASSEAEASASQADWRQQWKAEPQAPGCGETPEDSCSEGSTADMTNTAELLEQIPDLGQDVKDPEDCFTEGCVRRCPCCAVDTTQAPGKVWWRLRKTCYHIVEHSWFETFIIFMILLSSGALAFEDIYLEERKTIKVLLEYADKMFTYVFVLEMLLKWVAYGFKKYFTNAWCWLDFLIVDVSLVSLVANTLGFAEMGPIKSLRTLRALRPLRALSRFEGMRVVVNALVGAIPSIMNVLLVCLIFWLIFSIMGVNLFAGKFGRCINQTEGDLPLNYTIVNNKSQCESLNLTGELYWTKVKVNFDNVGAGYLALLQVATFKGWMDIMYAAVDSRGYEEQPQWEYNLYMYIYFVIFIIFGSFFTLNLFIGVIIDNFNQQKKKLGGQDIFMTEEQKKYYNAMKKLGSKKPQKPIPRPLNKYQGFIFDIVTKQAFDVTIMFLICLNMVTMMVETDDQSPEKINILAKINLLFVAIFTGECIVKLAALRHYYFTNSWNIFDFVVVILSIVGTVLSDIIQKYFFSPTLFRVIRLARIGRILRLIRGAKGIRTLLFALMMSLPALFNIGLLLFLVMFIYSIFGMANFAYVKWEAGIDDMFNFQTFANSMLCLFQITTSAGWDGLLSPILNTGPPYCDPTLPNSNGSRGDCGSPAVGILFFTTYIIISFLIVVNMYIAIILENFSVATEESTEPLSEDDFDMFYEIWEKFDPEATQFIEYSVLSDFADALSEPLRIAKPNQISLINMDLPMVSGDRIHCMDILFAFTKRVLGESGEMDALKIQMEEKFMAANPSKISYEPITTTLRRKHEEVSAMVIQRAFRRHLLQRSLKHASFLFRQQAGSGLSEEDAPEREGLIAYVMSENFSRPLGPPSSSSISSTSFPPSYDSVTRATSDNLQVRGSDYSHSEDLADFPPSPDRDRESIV
# ASSAY_SUMMARY: IonWorks Quattro automated patch-clamp, inactivated state block
# Format: cell-based
# DETAILS: IonWorks technique
# Method: For all electrophysiology experiments, offline analysis was used to correct for current rundown and to determine percent inhibition as a function of drug concentration. IC50 values were determined by fitting to the Hill equation. Cell Based Assays for Nav 1.7 and Nav 1.5 Activity Compounds were tested on human Nav1.7 and Nav1.5 channels stably expressed in HEK 293 cells. […] Cells were sealed on a planar substrate using the Population Patch Plate (PPC) technology. […]
QUANTITY: Ratio 1.5:1.7 = Nav 1.5 potency (nM)/Nav1.7 potency (nM)
Please respond with just the number, no unit label.

The following compounds have reported results that may help.
O=S(=O)(Nc1ncns1)c1ccc2c(cnn2Cc2ccc(Cl)cc2C2=CCNCC2)c1 [Ex-18] : 42
CN(C)CCNC(=O)c1cccc(-c2ccccc2Cn2ncc3cc(S(=O)(=O)Nc4ncns4)c(F)cc32)c1 [Ex-8] : 39
O=S(=O)(Nc1ncns1)c1ccc2c(cnn2Cc2ccc(Cl)cc2C2=CCNCCC2)c1 [Ex-17] : 59
CN(C)CCNC(=O)c1cccc(-c2cc(Cl)ccc2Cn2ncc3cc(S(=O)(=O)Nc4ncns4)ccc32)c1 [Ex-20] : 34
NC1CCc2cccc(Cn3ncc4cc(S(=O)(=O)Nc5ncns5)c(F)cc43)c2C1 (single isomer, unassigned) [Ex-13] : 5406

Which measured Ratio 1.5:1.7 = Nav 1.5 potency (nM)/Nav1.7 potency (nM) belongs to O=S(=O)(Nc1ncns1)c1ccc2c(cnn2Cc2ccccc2-c2cccc3c2CCNC3)c1 [Ex-22] , tested on human Nav1.5 channels stably expressed in HEK 293 cells (Homo sapiens, UniProt Q14524)?
23

Check O=S(=O)(Nc1nccs1)c1cc2cnn(Cc3cccc4c3CNCC4)c2cc1F [Ex-2] too.
1200

Check O=S(=O)(Nc1ncns1)c1cc2cnn(Cc3cccc4c3CNCC4)c2cc1F [Ex-1] too.
311

Check O=S(=O)(Nc1ncc(Cl)s1)c1cc2cnn(Cc3cccc4c3CNCC4)c2cc1F [Ex-3] too.
91

Check O=S(=O)(Nc1ncns1)c1ccc2c(cnn2Cc2ccc(Cl)cc2C2=CC3CCC(C2)N3)c1 (centres unmarked) [Ex-21] too.
26

Check O=S(=O)(Nc1ncns1)c1ccc2c(cnn2Cc2ccccc2C2=CCNCCC2)c1 [Ex-23] too.
19

Check C[C@@H](c1cccc2c1CNCC2)n1ncc2cc(S(=O)(=O)Nc3ncns3)c(F)cc21 [Ex-64] too.
42

Check NC1CCc2cccc(Cn3ncc4cc(S(=O)(=O)Nc5ncns5)c(F)cc43)c2C1 (single isomer, unassigned) [Ex-14] too.
1394

Check C[C@@H](c1ccccc1)n1ncc2cc(S(=O)(=O)Nc3ncns3)c(F)cc21 [Ex-11] too.
11

Check O=S(=O)(Nc1ncns1)c1ccc2c(cnn2Cc2ccc(Cl)cc2-c2cccc3c2CCNC3)c1 [Ex-25] too.
23

Check O=S(=O)(Nc1ncns1)c1cc2cnn(Cc3ccccc3)c2cc1F [Ex-12] too.
15

Check NC/C=C/c1ccccc1Cn1ncc2cc(S(=O)(=O)Nc3ncns3)ccc21 [Ex-15] too.
207

Where do the numbers come from? From patent US9388179B2.
